# Tested target: STK3 (human) (UniProt Q13188)
# Sequence (Q13188 whole entry, looked up): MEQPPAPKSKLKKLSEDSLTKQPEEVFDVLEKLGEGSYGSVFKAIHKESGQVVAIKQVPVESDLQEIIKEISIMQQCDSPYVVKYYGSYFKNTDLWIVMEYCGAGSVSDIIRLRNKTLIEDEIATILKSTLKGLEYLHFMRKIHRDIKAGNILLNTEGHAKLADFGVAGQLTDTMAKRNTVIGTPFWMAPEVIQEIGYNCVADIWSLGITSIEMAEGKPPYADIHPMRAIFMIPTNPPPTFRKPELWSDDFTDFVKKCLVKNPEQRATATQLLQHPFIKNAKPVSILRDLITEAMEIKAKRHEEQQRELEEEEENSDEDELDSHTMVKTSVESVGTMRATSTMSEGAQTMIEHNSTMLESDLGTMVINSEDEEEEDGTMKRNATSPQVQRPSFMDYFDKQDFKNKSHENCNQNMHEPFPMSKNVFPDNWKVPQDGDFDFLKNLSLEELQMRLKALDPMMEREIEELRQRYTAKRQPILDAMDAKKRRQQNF
# Procedure summary: radiometric filter-binding kinase assay, Kinase HotSpot
# Condition context: compound 0.5 µM; ATP 10 µM
Exercise: state measured residual activity for each of the compounds provided.
One number for each entry, in %.

A selection of reference data follows.
1) c1ccc(-c2n[nH]c3c2oc2ccccc23)cc1 : 49.6
2) N#C/C(=C(/N)Sc1ccc(N)cc1)c1ccccc1C(F)(F)F : 125
3) CC(C)N(CCC(=O)c1ccc2ccccc2c1)Cc1ccccc1 : 102
4) c1ccc(-c2n[nH]cc2-c2ccnc3ccccc23)nc1 : 102
5) O=C1NC(=O)c2c1c1c3ccccc3n3c1c1c2c2ccccc2n1C1CCC3O1 : 3.22

Your task in this section: give residual activity for each listed record.
1. O=C(Nc1cccc(Nc2nccc(Nc3cccc(C(F)(F)F)c3)n2)c1)C1CC1
2. CCCC(=O)Oc1ccc2[nH]c(C(=O)c3cc4ccccc4[nH]3)cc2c1

1. 96
2. 87

Your task in this section: give residual activity for each listed record.
1. Cc1ccc(S(=O)(=O)/C=C/C#N)cc1
2. CCC(=O)Nc1ccc2ncnc(Nc3cccc(Br)c3)c2c1

93.6
88

====

# Tested target: UniProtKB P29317
# Sequence (P29317 whole entry, looked up): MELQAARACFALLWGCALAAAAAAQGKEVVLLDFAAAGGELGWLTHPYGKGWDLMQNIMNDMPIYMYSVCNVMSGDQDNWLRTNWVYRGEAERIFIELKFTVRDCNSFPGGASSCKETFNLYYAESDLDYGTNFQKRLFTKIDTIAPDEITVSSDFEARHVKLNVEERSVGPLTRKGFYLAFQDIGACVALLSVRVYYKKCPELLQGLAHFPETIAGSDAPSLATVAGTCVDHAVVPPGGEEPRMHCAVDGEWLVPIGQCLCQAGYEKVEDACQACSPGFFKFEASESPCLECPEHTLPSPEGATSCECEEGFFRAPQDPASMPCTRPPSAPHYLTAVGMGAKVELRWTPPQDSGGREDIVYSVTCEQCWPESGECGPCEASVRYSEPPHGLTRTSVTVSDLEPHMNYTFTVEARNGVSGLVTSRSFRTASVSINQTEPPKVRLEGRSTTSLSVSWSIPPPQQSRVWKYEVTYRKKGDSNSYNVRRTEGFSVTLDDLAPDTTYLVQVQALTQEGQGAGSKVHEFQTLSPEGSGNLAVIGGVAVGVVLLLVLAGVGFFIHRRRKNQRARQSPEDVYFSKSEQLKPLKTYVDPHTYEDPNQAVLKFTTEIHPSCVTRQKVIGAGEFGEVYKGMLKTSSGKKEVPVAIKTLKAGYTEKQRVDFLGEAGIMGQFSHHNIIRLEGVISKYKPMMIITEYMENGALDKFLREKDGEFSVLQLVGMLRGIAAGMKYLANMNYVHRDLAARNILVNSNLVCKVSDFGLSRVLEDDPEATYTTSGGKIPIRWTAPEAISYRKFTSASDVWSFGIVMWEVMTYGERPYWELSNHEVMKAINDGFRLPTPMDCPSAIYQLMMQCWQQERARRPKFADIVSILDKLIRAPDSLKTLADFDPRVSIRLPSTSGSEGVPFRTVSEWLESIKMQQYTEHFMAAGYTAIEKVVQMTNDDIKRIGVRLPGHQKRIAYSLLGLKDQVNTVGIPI
# Procedure summary: radiometric filter-binding kinase assay, Kinase HotSpot
# Condition context: compound 0.5 µM; ATP 10 µM
Exercise: state measured residual activity for each of the compounds provided.
Give bare numbers, in %.

A selection of reference data follows.
1. Nc1ncnc2[nH]nc(Nc3ccc(F)cc3)c12 : 89.9
2. O=C1NC(=O)c2c1c1c3ccccc3n3c1c1c2c2ccccc2n1C1CCC3O1 : 91.3

Now for another entry.
Consider the compound shown here: CCN(CC)C(=O)c1ccc(Nc2nc(OCC3CCCCC3)c3nc[nH]c3n2)cc1 What is its recorded residual activity?
90.6

====

# Tested target: CSNK1A1 (human) (UniProt P48729)
# Sequence (P48729 whole entry, looked up): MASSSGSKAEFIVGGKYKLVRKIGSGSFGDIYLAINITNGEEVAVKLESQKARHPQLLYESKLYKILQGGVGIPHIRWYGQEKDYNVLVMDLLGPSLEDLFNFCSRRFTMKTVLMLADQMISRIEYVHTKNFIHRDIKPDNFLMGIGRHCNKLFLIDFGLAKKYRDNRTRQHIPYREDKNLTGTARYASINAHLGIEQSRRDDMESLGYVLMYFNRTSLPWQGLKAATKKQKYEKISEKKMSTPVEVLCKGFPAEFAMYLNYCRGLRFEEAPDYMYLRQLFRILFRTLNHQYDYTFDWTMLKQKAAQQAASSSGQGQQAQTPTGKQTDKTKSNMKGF
# Procedure summary: radiometric filter-binding kinase assay, Kinase HotSpot
# Condition context: compound 0.5 µM; ATP 10 µM
Property label: residual activity

A selection of reference data follows.
1. O=C1Nc2ccc(Cl)cc2/C1=C/c1cc(Cl)c(O)c(Cl)c1 : 92.6%
2. COc1cc2ncnc(Nc3cccc(Cl)c3)c2cc1OC : 92.5%

Now for another entry.
Consider the compound shown here: CC(C)N(CCC(=O)c1ccc2ccccc2c1)Cc1ccccc1 What is its recorded residual activity?
88.4%

====

Exercise: state measured residual activity for each of the compounds provided.
# Tested target: CSNK2A2 (human) (UniProt P19784)
# Sequence (P19784 whole entry, looked up): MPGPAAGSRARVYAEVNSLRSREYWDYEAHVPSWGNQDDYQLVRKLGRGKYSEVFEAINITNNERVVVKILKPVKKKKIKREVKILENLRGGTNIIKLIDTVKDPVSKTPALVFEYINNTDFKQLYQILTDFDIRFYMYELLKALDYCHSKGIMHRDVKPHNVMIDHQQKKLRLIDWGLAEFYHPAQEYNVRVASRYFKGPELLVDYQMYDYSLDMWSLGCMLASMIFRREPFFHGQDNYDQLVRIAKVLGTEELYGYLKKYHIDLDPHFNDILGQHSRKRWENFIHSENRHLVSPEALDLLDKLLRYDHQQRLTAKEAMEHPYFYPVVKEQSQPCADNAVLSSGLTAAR
# Procedure summary: radiometric filter-binding kinase assay, Kinase HotSpot
# Condition context: compound 0.5 µM; ATP 10 µM
One number for each entry, in %.

1. CC#CC(=O)Nc1cc2c(Nc3ccc(F)c(Cl)c3)ncnc2cn1 : 96.5
2. c1ccc(-c2n[nH]cc2-c2ccnc3ccccc23)nc1 : 96.7
3. Nc1cccc(-c2cc3c(Oc4cccc(O)c4)ncnc3[nH]2)c1 : 96.5
4. CCN(CC)CCNC(=O)c1c(C)[nH]c(/C=C2\C(=O)Nc3ccc(Cl)cc32)c1C : 64.3
5. O=C1NC(=O)C(c2cn(CCCn3ccnc3)c3ccccc23)=C1Nc1ccccc1 : 87.6

Your task in this section: give residual activity for each listed record.
1. COc1ccc(COc2ccc(Cc3cnc(N)nc3N)cc2OC)cc1
2. O=c1cc(N2CCOCC2)oc2c1ccc1ccccc12
3. c1ccc(-c2n[nH]c3c2oc2ccccc23)cc1

1: 97.4; 2: 78.6; 3: 85.6

====

# Tested target: PRKD2 (human)
# Procedure summary: radiometric filter-binding kinase assay, Kinase HotSpot
# Condition context: compound 0.5 µM; ATP 10 µM
Response field label: string, one of Y (residual activity strictly below 90%) or N.

A selection of reference data follows.
1. Cc1[nH]c(/C=C2\C(=O)Nc3ccc(S(=O)(=O)N(C)c4cccc(Cl)c4)cc32)c(C)c1C(=O)N1CCN(C)CC1 : Y
2. CC[n+]1c(/C=C/N(C)c2ccccc2)n(-c2ccccc2)c2ccc(-c3nc4ccccc4s3)cc21 : N
3. Cc1ccc(S(=O)(=O)/C=C/C#N)cc1 : N
4. CC(=O)c1ccc(N2CCOCC2)cc1O : N

Now look at this one.
Quick check: does O=S(=O)(c1cccc2cnccc12)N1CCCNCC1 have residual activity under 90%?
Y

====

Exercise: state measured residual activity for each of the molecules provided.
# Tested target: CDK5 CDK5R1 p35 (human) (UniProt Q00535+Q15078)
# Procedure summary: radiometric filter-binding kinase assay, Kinase HotSpot
# Condition context: compound 0.5 µM; ATP 10 µM
One number for each entry, in %.

A selection of reference data follows.
1) CC(=O)c1ccc(N2CCOCC2)cc1O : 97.1
2) COC[C@H]1OC(=O)c2coc3c2[C@@]1(C)C1=C(C3=O)[C@@H]2CCC(=O)[C@@]2(C)C[C@H]1OC(C)=O : 88.7
3) Cc1nc(Nc2ncc(C(=O)Nc3c(C)cccc3Cl)s2)cc(N2CCN(CCO)CC2)n1 : 101
4) N#C/C(=C(/N)Sc1ccc(N)cc1)c1ccccc1C(F)(F)F : 103

Now for another entry.
Hello, I am looking for reported residual activity with CDK5 CDK5R1 p35 (human) (UniProt Q00535+Q15078) for O=C1NC(=O)c2c1c1c3ccccc3n3c1c1c2c2ccccc2n1C1CCC3O1 . Could you help?
23.3

====

# Tested target: RAF1 (human) (UniProt P04049)
# Sequence (P04049 whole entry, looked up): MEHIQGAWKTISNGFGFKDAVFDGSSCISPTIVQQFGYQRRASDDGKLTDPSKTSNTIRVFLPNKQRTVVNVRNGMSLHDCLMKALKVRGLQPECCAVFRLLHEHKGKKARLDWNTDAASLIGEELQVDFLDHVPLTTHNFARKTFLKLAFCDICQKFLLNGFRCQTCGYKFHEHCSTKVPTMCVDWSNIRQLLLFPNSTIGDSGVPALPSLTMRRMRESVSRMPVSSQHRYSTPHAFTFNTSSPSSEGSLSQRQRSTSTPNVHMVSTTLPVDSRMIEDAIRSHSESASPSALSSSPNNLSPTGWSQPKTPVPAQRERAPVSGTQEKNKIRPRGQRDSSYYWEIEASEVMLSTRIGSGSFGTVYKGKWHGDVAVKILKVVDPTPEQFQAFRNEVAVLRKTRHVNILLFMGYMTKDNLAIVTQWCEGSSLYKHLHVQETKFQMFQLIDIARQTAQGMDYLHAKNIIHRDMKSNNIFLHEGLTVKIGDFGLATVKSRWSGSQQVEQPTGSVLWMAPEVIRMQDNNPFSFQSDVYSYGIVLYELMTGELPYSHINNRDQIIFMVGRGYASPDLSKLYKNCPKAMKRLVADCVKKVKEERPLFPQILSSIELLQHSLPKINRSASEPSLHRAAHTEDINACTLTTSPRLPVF
# Procedure summary: radiometric filter-binding kinase assay, Kinase HotSpot
# Condition context: compound 0.5 µM; ATP 10 µM
Property label: residual activity (%)
One number for each entry, in %.

1) CCCC(=O)Oc1ccc2[nH]c(C(=O)c3cc4ccccc4[nH]3)cc2c1 : 98.7
2) CCC(=O)Nc1ccc2ncnc(Nc3cccc(Br)c3)c2c1 : 98.4

Your task in this section: give residual activity for each listed record.
1. CCOC(=O)c1c(C)[nH]c(/C=C2\C(=O)Nc3ccccc32)c1C
2. COc1ccc2c(c[n+](C)c3c4cc5c(cc4ccc23)OCO5)c1OC

89.6
96.7

Your task in this section: give residual activity for each listed record.
1. O=C(Nc1cccc(Nc2nccc(Nc3cccc(C(F)(F)F)c3)n2)c1)C1CC1
2. Cc1ccc(S(=O)(=O)/C=C/C#N)cc1
3. CCN(CC)CCNC(=O)c1c(C)[nH]c(/C=C2\C(=O)Nc3ccc(F)cc32)c1C
4. CCN(CC)C(=O)c1ccc(Nc2nc(OCC3CCCCC3)c3nc[nH]c3n2)cc1
5. Cc1ccc(Nc2nccc(N(C)c3ccc4c(C)n(C)nc4c3)n2)cc1S(N)(=O)=O
6. Oc1cccc(-c2nc(N3CCOCC3)c3oc4ncccc4c3n2)c1
7. O=S(=O)(c1cccc2cnccc12)N1CCCNCC1

1: 98.7; 2: 104; 3: 110; 4: 86.3; 5: 9.43; 6: 79.1; 7: 98.3

====

# Tested target: AURKA (human)
# Procedure summary: radiometric filter-binding kinase assay, Kinase HotSpot
# Condition context: compound 0.5 µM; ATP 10 µM
Property label: residual activity
Quick note: unit goes after the number.

A selection of reference data follows.
1) COc1cc2ncnc(Nc3cccc(Cl)c3)c2cc1OC : 93.3%
2) CCC(=O)Nc1ccc2ncnc(Nc3cccc(Br)c3)c2c1 : 97.4%
3) Cc1ccc(Nc2nccc(N(C)c3ccc4c(C)n(C)nc4c3)n2)cc1S(N)(=O)=O : 38.4%
4) CCCC(=O)Oc1ccc2[nH]c(C(=O)c3cc4ccccc4[nH]3)cc2c1 : 94.6%
5) CCN(CC)CCNC(=O)c1c(C)[nH]c(/C=C2\C(=O)Nc3ccc(Cl)cc32)c1C : 80.3%

Now for another entry.
Hello, I am looking for reported residual activity with AURKA (human) for Oc1cccc(-c2nc(N3CCOCC3)c3oc4ncccc4c3n2)c1 . Could you help?
91.9%

====

# Tested target: MAP4K5 (human)
# Procedure summary: radiometric filter-binding kinase assay, Kinase HotSpot
# Condition context: compound 0.5 µM; ATP 10 µM
Exercise: state measured residual activity for each of the compounds provided.
One number for each entry, in %.

A selection of reference data follows.
1. N#C/C(=C(/N)Sc1ccc(N)cc1)c1ccccc1C(F)(F)F : 94
2. N#CC(C#N)=C(N)/C(C#N)=C/c1ccc(O)cc1 : 99.6
3. O=C1NC(=O)C(c2cn(CCCn3ccnc3)c3ccccc23)=C1Nc1ccccc1 : 66.5
4. Nc1ccc2ncnc(NCCc3ccc(Oc4ccccc4)cc3)c2c1 : 94.8
5. O=c1cc(N2CCOCC2)oc2c1ccc1ccccc12 : 103

Your task in this section: give residual activity for each listed record.
1. CCN(CC)C(=O)c1ccc(Nc2nc(OCC3CCCCC3)c3nc[nH]c3n2)cc1
2. CCOC(=O)c1c(C)[nH]c(/C=C2\C(=O)Nc3ccccc32)c1C
3. Cc1[nH]c(/C=C2\C(=O)Nc3ccc(S(=O)(=O)N(C)c4cccc(Cl)c4)cc32)c(C)c1C(=O)N1CCN(C)CC1
4. c1ccc(-c2n[nH]cc2-c2ccnc3ccccc23)nc1
5. Cc1ccc(S(=O)(=O)/C=C/C#N)cc1

1: 78; 2: 84.3; 3: 5.06; 4: 87.4; 5: 97.8

Your task in this section: give residual activity for each listed record.
1. CC#CC(=O)Nc1cc2c(Nc3ccc(F)c(Cl)c3)ncnc2cn1
2. c1ccc(-c2n[nH]c3c2oc2ccccc23)cc1
3. Nc1cccc(-c2cc3c(Oc4cccc(O)c4)ncnc3[nH]2)c1

1. 100
2. 36.6
3. 18.4

Your task in this section: give residual activity for each listed record.
1. O=S(=O)(c1cccc2cnccc12)N1CCCNCC1
2. O=C1Nc2ccc(Cl)cc2/C1=C/c1cc(Cl)c(O)c(Cl)c1

36.3
75.9

Your task in this section: give residual activity for each listed record.
1. Cc1ccc(NC2=CC(=O)c3sc(C)nc3C2=O)cc1
2. Nc1ncnc2c1c(-c1ccc(Oc3ccccc3)cc1)cn2C1CCCC1
3. Oc1cccc(-c2nc(N3CCOCC3)c3oc4ncccc4c3n2)c1
4. CCN(CC)CCNC(=O)c1c(C)[nH]c(/C=C2\C(=O)Nc3ccc(F)cc32)c1C

1. 96.9
2. 80.2
3. 82.4
4. 4.06
